assay: Pharmacokinetics of PEGylated protease inhibitor prodrugs in rats; assay type: in vivo, male Sprague-Dawley rats; details: male, Sprague-Dawley, rat, oral, prodrug in plasma, mean ± SD, read-out: Cmax
Value type: Cmax
The reply should read as a number followed by its unit.

Molecule: COCCOCCOCCOCCOCCOC(=O)N[C@H](C(=O)N[C@@H](Cc1ccccc1)[C@H](CN(Cc1ccc(-c2ccccn2)cc1)NC(=O)[C@@H](NC(=O)OC)C(C)(C)C)OC(=O)[C@@H](N)CC(C)C)C(C)(C)C
Reported result: 191 ng/mL

Prompt line: Item COCCOCCOCCOCCOCCOC(=O)N[C@@H](C(=O)N[C@@H](Cc1ccccc1)[C@H](CN(Cc1ccc(-c2ccccn2)cc1)NC(=O)[C@H](NC(=O)OC)C(C)(C)C)OC(=O)CCCC(=O)O[C@@H]1[C@@H](O)[C@@H](O)O[C@@H]1[C@H](O)CO)C(C)(C)C has what recorded Cmax?
Response line: 13.1 ng/mL
